From: patent US20050203151A1

Target: PPAR-alpha (Homo sapiens, UniProt Q07869)
Construct: expressed in transfected cells; host or cells: CV-1 cells
Sequence (Q07869 239-466 limits assumed): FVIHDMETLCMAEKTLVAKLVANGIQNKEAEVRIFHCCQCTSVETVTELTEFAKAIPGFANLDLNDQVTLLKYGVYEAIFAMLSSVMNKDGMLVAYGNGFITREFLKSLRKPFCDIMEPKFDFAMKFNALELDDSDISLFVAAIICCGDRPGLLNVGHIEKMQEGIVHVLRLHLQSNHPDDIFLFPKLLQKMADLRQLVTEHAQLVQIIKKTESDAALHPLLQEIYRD
Assay: human PPAR-GAL4 chimera luciferase reporter assay in CV-1 cells, PPAR-alpha
Assay type: cell-based
Details: Table 3, Examples 11-25, read-out: PPAR alpha (EC50)
pEC50: −log10 of the molar value.
readout: pEC50

Exercise: Consider the compound shown here: Cc1nc(-c2ccc(C(F)(F)F)cc2)sc1CCn1ccc2ccc(OC(C)(C)C(=O)O)cc21 What is its recorded pEC50?
Solution: > 5.30

Exercise: Could you do the same for Cc1nc(-c2ccc(C(F)(F)F)cc2)sc1CCN1CCc2ccc(OCC(=O)O)cc21 , please?
Solution: 4.00 to 5.30

Exercise: Could you do the same for Cc1nc(-c2ccc(C(F)(F)F)cc2)sc1Cn1cc(CC(=O)O)c2ccccc21 , please?
Solution: 4.00 to 5.30

Exercise: Could you do the same for Cc1nc(-c2ccc(C(F)(F)F)cc2)sc1CCn1ccc2cc(OCC(=O)O)ccc21 , please?
Solution: 4.00 to 5.30

Exercise: Could you do the same for Cc1nc(-c2ccc(C(F)(F)F)cc2)sc1CCn1ccc2ccc(OCC(=O)O)cc21 , please?
Solution: 4.00 to 5.30

Exercise: Could you do the same for Cc1nc(-c2ccc(C(F)(F)F)cc2)sc1CCN1CCc2cc(OCC(=O)O)ccc21 , please?
Solution: 4.00 to 5.30

Exercise: Could you do the same for Cc1nc(-c2ccc(C(F)(F)F)cc2)sc1CCN1CCc2cc(OC(C)(C)C(=O)O)ccc21 , please?
Solution: > 5.30

Exercise: Could you do the same for Cc1nc(-c2ccc(C(F)(F)F)cc2)sc1CCN1CCc2ccc(OC(C)(C)C(=O)O)cc21 , please?
Solution: > 5.30

----------
Target: PPAR-delta (Homo sapiens)
Construct: expressed in transfected cells; host or cells: CV-1 cells
Sequence (Q03181 211-439 limits assumed): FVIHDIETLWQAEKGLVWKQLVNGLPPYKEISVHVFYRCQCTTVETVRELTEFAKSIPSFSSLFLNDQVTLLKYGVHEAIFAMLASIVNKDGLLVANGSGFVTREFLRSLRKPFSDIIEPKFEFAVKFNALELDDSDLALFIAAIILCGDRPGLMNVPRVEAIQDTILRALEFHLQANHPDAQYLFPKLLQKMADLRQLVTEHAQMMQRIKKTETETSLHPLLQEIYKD
Experiment: human PPAR-GAL4 chimera luciferase reporter assay in CV-1 cells, PPAR-delta
Format: cell-based
Conditions: Table 3, Examples 11-25, read-out: PPAR delta (EC50)
readout: EC50

Exercise: Consider the molecule shown here: Cc1nc(-c2ccc(C(F)(F)F)cc2)sc1Cn1ccc2cccc(OCC(=O)O)c21 [Example 14] What is its recorded EC50?
Solution: 5 to 100 µM

Exercise: Could you do the same for Cc1nc(-c2ccc(C(F)(F)F)cc2)sc1Cn1ccc2ccc(OCC(=O)O)cc21 [Example 13] , please?
Solution: < 5 µM

Exercise: Could you do the same for Cc1nc(-c2ccc(C(F)(F)F)cc2)sc1Cn1ccc2cc(OC(C)(C)C(=O)O)ccc21 [Example 15] , please?
Solution: < 5 µM

Exercise: Could you do the same for Cc1nc(-c2ccc(C(F)(F)F)cc2)sc1Cn1ccc2cc(OCC(=O)O)ccc21 [Example 12] , please?
Solution: 5 to 100 µM
